# reported inhibition; entries follow
experiment: inhibitors of TNFa-induced NFkB p65 translocation, primary screen, imaging, HUVEC, MLSMR starter and 10KST1 sets (AID 438); settings: HUVEC TNFa-induced p65 nuclear translocation; at 2 µM, hits give high values, 0% TNFa-plus-vehicle, 100% no-TNFa wells;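 further: compound added about 3h40 before a 20 min TNFalpha stimulation; signal is the nuclear over cytoplasmic p65 intensity ratio per well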

>  <MOLECULE>
CCN(C(=O)c1cc(Cl)ccc1OC)c1ccccc1

>  <inhibition [%]>
5.3

$$$$
>  <MOLECULE>
CCc1ccc(C=NC23CN4CN(CN(C4)C2)C3)s1

>  <inhibition [%]>
-14.4

$$$$
>  <MOLECULE>
O=C(Cn1nnc(-c2cc(Cl)ccc2-n2cnnn2)n1)N1CCCc2ccccc21

>  <inhibition [%]>
-2.1

$$$$
>  <MOLECULE>
NC(=O)c1cccc2c1C(=O)N(C1CCCCC1)C2

>  <inhibition [%]>
-0.6

$$$$
>  <MOLECULE>
CC(C)c1nnc(NC(=O)c2cnccn2)s1

>  <inhibition [%]>
-0.5

$$$$
>  <MOLECULE>
Cc1csc(NC(=O)c2ccoc2C)n1

>  <inhibition [%]>
1.3

$$$$
>  <MOLECULE>
CC(C)(C)n1nnnc1CN1CCC(NC(=O)NC2CCCCC2)CC1

>  <inhibition [%]>
-18.5

$$$$
>  <MOLECULE>
COc1ccc(OC)c(C2C(C(=O)Nc3cccnc3)=C(C)NC3=C2C(=O)CCC3)c1 (configuration not stated)

>  <inhibition [%]>
-7

$$$$
>  <MOLECULE>
N#Cc1ccc(CSc2nnc(-c3cccs3)n2-c2ccccc2)cc1

>  <inhibition [%]>
-6

$$$$
>  <MOLECULE>
CCOc1ccccc1NC(=O)CSc1nnc2c(CC)c(C)nc(N)n12

>  <inhibition [%]>
-6.8

$$$$
>  <MOLECULE>
CCOC(=O)N1CCN(C(=O)c2n[nH]c(=O)c3ccccc23)CC1

>  <inhibition [%]>
-9.4

$$$$
>  <MOLECULE>
COc1ccc(N2CCN(c3oc(COc4ccccc4Cl)nc3C#N)CC2)cc1

>  <inhibition [%]>
14.6

$$$$
